This section presents compounds with their documented Percent Effect values.
Species on record: Homo sapiens
PROCEDURE TEXT: To identify inhibition of the IFN signalling (Jak-Stat) pathway via expression of an eGFP reporter gene under the control of an IFN-stimulated response element (ISRE) containing MxA promoter.
Type: functional
Set-up: scale not given: direction of the effect not stated beside the values
CONDITION INFO: 30 µM
PROPERTY: Percent Effect

1. CCN(C(=O)c1ccc(-n2ncc(C#N)c2N)cc1)C1CCCC1	3.59%
2. COc1ccccc1CC(=O)NCCCN1CCCC1C(=O)N(C)C (centres undefined)	-15.4%
3. Cc1cc(NCc2cc3n(n2)CCCN(S(C)(=O)=O)C3)ncn1	0.911%
4. Cc1ccc([C@@H]2CN(S(=O)(=O)N(C)C)C[C@H]2N(C)C)cc1	-3.64%
5. COCCN1CCCC1c1nccnc1Nc1nc(C)cs1 (centres undefined)	21.3%
6. CCCN(CC)C(=O)c1cc2c(c3ccccc3n2C)n1C(=O)N(C)C	-7.65%
7. CCOc1ccccc1OC1CCN(C(=O)c2nc(=O)[nH][nH]2)CC1	18.1%
8. O=S(=O)(c1cccs1)N1CC[C@H](O)[C@@H]1Cc1ccncc1	-0.0803%
9. CCN1CCC2(CC1)CC(NC(=O)N(C)C)c1cc(C)ccc12 (centres undefined)	-15.2%
10. Cc1cc2nc(SCC(=O)N3CCCC3)n(C(C)C)c(=O)c2[nH]1	17.9%
11. CN1CCN(CC2CC2)C(=O)c2cnc(N3CC[C@@H](O)C3)nc21	-1.63%
12. O=C(NCCNC(=O)c1scnc1Cl)c1ccccc1	9.89%
13. COc1cccc(CN2CCN(c3ccc4nncn4n3)C(C)C2)c1 (centres undefined)	85.3%
14. CN(C)S(=O)(=O)N1CCN(c2ccnc(N3CCCC3)n2)CC1	-13.3%
15. CN1CC(=O)N(c2ccccc2)CC12CCN(CC1CC1)C2 (centres undefined)	-3.51%
16. Cc1cnc(CN(C)C2CCN(CCc3cnn(C)c3)C2)o1 (centres undefined)	2.79%
17. COc1ccc(NC(=O)c2ccc[nH]2)c(N2CCN(C(C)=O)CC2)n1	-7.2%
18. CCC(NC(=O)c1ccco1)c1ccccc1OCC(=O)N1CCCC1 (centres undefined)	13.3%
19. Cn1ccnc1CN1CCCC(Cc2ccccn2)C1 (centres undefined)	1.89%
20. COCCN1C(=O)CCC12CCN(C(=O)CC1CC1)CC2	11.8%
21. Cc1nc(CNC(=O)NCC(O)c2ccc(F)cc2F)cs1 (centres undefined)	-4.09%
22. CCc1nc(CC(=O)NCC(Cc2ccc(F)cc2)C(N)=O)cs1 (centres undefined)	11.5%
23. CCC1=N[C@@]2(CC[C@@H]3CN(C(=O)NCc4ccccc4)C[C@@H]32)C(=O)N1	-16.6%
24. CC(C(=O)NCCCn1ccnc1)n1cc(Br)cn1 (centres undefined)	-6.92%

Source: ChEMBL document CHEMBL3988442
